System: Klebsiella aerogenes DSM 30053
Assay: fold change of Putrescine concentration vs plate DMSO controls (fold change (ratio)); higher = more amine produced, active = hit call of the paper (significant change in both replicates, either direction)
Details: incubation time: 27 h, anaerobic, 37 °C
Measured quantity: fold change of Putrescine concentration

# example entries with known answers
| Molecule | Recorded result |
| --- | --- |
| CC(C)(C)C(=O)C(Oc1ccc(Cl)cc1)n1ccnc1 (stereo unspecified) [Climbazole] (20 µM) | 1.02 (inactive) |
| NS(=O)(=O)c1cc(C(=O)O)c(NCc2ccco2)cc1Cl [Furosemide] (20 µM) | 0.984 (inactive) |

Could you now consider this next molecule?
molecule C[C@]1(Cn2ccnn2)[C@H](C(=O)O)N2C(=O)C[C@H]2S1(=O)=O [Tazobactam] (20 µM) , fold change of Putrescine concentration observed: 1.04 (inactive)

* * *

Test system: Clostridium sporogenes DSM 1664
Assay: fold change of Tryptamine concentration vs plate DMSO controls (fold change (ratio)); higher = more amine produced, active = hit call of the paper (significant change in both replicates, either direction);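 for the amine columns active = adjusted P below 0.05 in both replicates with a change the same way and a mean fold change under 0.8 or over 1.25; inactive = the rest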
Settings: incubation time: 27 h, anaerobic, 37 °C
Counter-ions that a name gives are not always drawn.
API: response.call in true (1) = active, false (0) = inactive

Worked set:
| Compound | Answer label |
| --- | --- |
| COc1ccc([C@@H]2Sc3ccccc3N(CCN(C)C)C(=O)[C@@H]2OC(C)=O)cc1 [Diltiazem hydrochloride] (20 µM) | false (0) |
| C[C@H](CCC(=O)O)[C@H]1CC[C@H]2[C@@H]3[C@H](O)C[C@@H]4C[C@H](O)CC[C@]4(C)[C@H]3CC[C@]12C [Chenodiol] (20 µM) | false (0) |
| COc1ccc2cc1Oc1ccc(cc1)C[C@H]1c3c(cc4c(c3Oc3cc5c(cc3OC)CCN(C)[C@@H]5C2)OCO4)CCN1C [Cepharanthine] (20 µM) | false (0) |
| CC(C)[C@H](N)C(=O)OCCOCn1cnc2c(=O)nc(N)[nH]c21 [Valacyclovir hydrochloride] (20 µM) | false (0) |
| C[C@]12CC[C@@H]3c4ccc(O)cc4CC[C@H]3[C@@H]1CCC2=O [Estrone] (20 µM) | false (0) |
| CC(C)(C)CC(C)(C)c1ccc(OCCOCC[N+](C)(C)Cc2ccccc2)cc1 [Benzethonium chloride] (20 µM) | false (0) |
| c1ccc(-c2ccc(C(c3ccccc3)n3ccnc3)cc2)cc1 (configuration not stated) [Bifonazole] (20 µM) | false (0) |
| CC1(C)S[C@@H]2[C@H](NC(=O)C3(N)CCCCC3)C(=O)N2[C@H]1C(=O)O [Cyclacillin] (20 µM) | true (1) |
| CC(C)n1c(/C=C/C(O)CC(O)CC(=O)O)c(-c2ccc(F)cc2)c2ccccc21 (configuration not stated) [Fluvastatin sodium salt] (20 µM) | false (0) |
| C[C@H]1O[C@@H](O[C@H]2[C@@H](O)C[C@H](O[C@H]3[C@@H](O)C[C@H](O[C@H]4CC[C@@]5(C)[C@H](CC[C@@H]6[C@@H]5C[C@@H](O)[C@]5(C)[C@@H](C7=CC(=O)OC7)CC[C@]65O)C4)O[C@@H]3C)O[C@@H]2C)C[C@H](O)[C@@H]1O [Digoxin] (20 µM) | false (0) |

Give the logged outcome of this assay for the following compound: COc1ccccc1N1CCN(CCCCNC(=O)c2ccc3ccccc3c2)CC1 (20 µM) false (0)

Answer briefly: the call reported for CCOc1ccc(NC(C)=O)cc1 [Phenacetin] (20 µM) in this assay. false (0)

Which outcome was assigned to OCCN1CCN(CCCN2c3ccccc3Sc3ccc(C(F)(F)F)cc32)CC1 [Fluphenazine dihydrochloride] (20 µM) in this test? false (0)

State the result this test recorded for CC(=O)N[C@@H](CS)C(=O)O [Acetylcysteine] (20 µM) . false (0)

What classification did CCN[C@H]1CN(CCCOC)S(=O)(=O)c2sc(S(N)(=O)=O)cc21 [Brinzolamide] (20 µM) end up with in this test? false (0)

Please state the recorded outcome for this compound: CC(C)(C)C(O)/C=C/c1ccc2c(c1)OCO2 (configuration not stated) [Stiripentol] (20 µM) false (0)

Identify the outcome logged in this assay for the compound shown: CCOC(=O)C1=C[C@]2(CC)CCCN3CCc4c(n1c1ccccc41)[C@@H]32 [Vinpocetine] (20 µM) false (0)

* * *

Here, each record is paired with measured growth data.
System: Clostridium sporogenes DSM 1664
Experiment: growth (OD595) fold change vs plate DMSO controls (fold change (ratio)); higher = more growth
Settings: incubation time: 27 h, anaerobic, 37 °C
Lab note: record the figure alone, no unit after it.

Recorded results for 2 compounds are shown here.
| Compound | Recorded result |
| --- | --- |
| Cc1cc2c(cc1S(N)(=O)=O)S(=O)(=O)CCC2 [Meticrane] (20 µM) | 0.974 |
| CCCc1nc2c(C)cc(-c3nc4ccccc4n3C)cc2n1Cc1ccc(-c2ccccc2C(=O)O)cc1 [Telmisartan] (20 µM) | 0.962 |

Continue with the next compound.
GET /value?item= Oc1c(Cl)cc(Cl)c(Cl)c1Cc1c(O)c(Cl)cc(Cl)c1Cl [Hexachlorophene] (20 µM) &field=growth returns 0

* * *

Tested on: Klebsiella aerogenes DSM 30053
Test: fold change of Cadaverine concentration vs plate DMSO controls (fold change (ratio)); higher = more amine produced, active = hit call of the paper (significant change in both replicates, either direction)
Settings: incubation time: 27 h, anaerobic, 37 °C
Where a name gives a salt, the structure may show the parent alone.
Measured quantity: fold change of Cadaverine concentration
Would you mind answering with just the numeric figure?

Examples from the recorded data:
| Compound | fold change of Cadaverine concentration |
| --- | --- |
| CCCCCNC(=N)N/N=C/c1c[nH]c2ccc(OC)cc12 [Tegaserod maleate] (20 µM) | 1 |
| O=C(O[C@@H]1C[C@@H]2C[C@H]3C[C@H](C1)N2CC3=O)c1c[nH]c2ccccc12 [Dolasetron mesilate] (20 µM) | 0.989 |
| Nc1nc(=O)[nH]cc1F [Flucytosine] (20 µM) | 0.979 |
| Cc1cccc(C)c1OCC(=O)N[C@@H](Cc1ccccc1)[C@@H](O)C[C@H](Cc1ccccc1)NC(=O)[C@H](C(C)C)N1CCCNC1=O [Lopinavir] (20 µM) | 1.02 |
| Cn1nnnc1SCC1=C(C(=O)O)N2C(=O)[C@@H](NC(=O)[C@H](O)c3ccccc3)[C@H]2SC1 [Cefamandole sodium salt] (20 µM) | 1.06 |
| NC[C@@H]1O[C@H](O[C@H]2[C@@H](O)[C@H](O[C@@H]3[C@@H](O)[C@H](N)C[C@H](N)[C@H]3O[C@H]3O[C@H](CN)[C@@H](O)[C@H](O)[C@H]3N)O[C@@H]2CO)[C@H](N)[C@@H](O)[C@@H]1O [Neomycin sulfate] (20 µM) | 1.02 |
| CCOc1cc(N)c(Cl)cc1C(=O)NCC1CN(Cc2ccc(F)cc2)CCO1 (stereo not drawn) [Mosapride] (20 µM) | 0.992 |
| CC(C)NCC(O)c1ccc(O)c(O)c1 (single isomer, unassigned; (+)) [(+) Isoproterenol-(+)-bitartrate salt] (20 µM) | 0.974 |
| CC(=O)NC[C@H]1CN(c2ccc(N3CCOCC3)c(F)c2)C(=O)O1 [Linezolid] (20 µM) | 1 |
| C[C@@H]1C[C@H]2[C@@H]3C[C@H](F)C4=CC(=O)C=C[C@]4(C)[C@@]3(F)[C@@H](O)C[C@]2(C)[C@@]1(O)C(=O)CO [Flumethasone] (20 µM) | 0.991 |

fold change of Cadaverine concentration for O=C(NCC(O)CO)c1c(I)c(C(=O)NCC(O)CO)c(I)c(N(CCO)C(=O)CO)c1I (stereo not drawn) [Ioversol] (20 µM) is 1.02

Measured fold change of Cadaverine concentration, CN(C)C(=O)C(CCN1CCC(O)(c2ccc(Cl)cc2)CC1)(c1ccccc1)c1ccccc1 [Loperamide hydrochloride] (20 µM) : 1.02

// NC(=O)c1cc[n+](CC2=C(C(=O)O)N3C(=O)[C@@H](NC(=O)C(c4ccccc4)S(=O)(=O)[O-])[C@H]3SC2)cc1 (stereo partly drawn) [Cefsulodin Sodium Salt Hydrate] (20 µM) : fold change of Cadaverine concentration value = 0.992

GET /value?item= CCOC(=O)Nc1ccc2c(c1)N(C(=O)CCN1CCOCC1)c1ccccc1S2 [Moricizine hydrochloride] (20 µM) &field=fold change of Cadaverine concentration returns 1

CCN(CC)CCOC(=O)c1ccc(N)cc1 [Procaine hydrochloride] (20 µM) has a reported fold change of Cadaverine concentration of 1.01

Memo: Cc1ncc([N+](=O)[O-])n1C [Dimetridazole] (20 µM) , reported fold change of Cadaverine concentration: 1.01

fold change of Cadaverine concentration measured on CS(=O)(=O)OCCCCOS(C)(=O)=O [Busulfan] (20 µM) = 1.04

For record CC1(C)S[C@@H]2[C@H](NC(=O)Cc3ccccc3)C(=O)N2[C@H]1C(=O)O [Benzylpenicillin sodium] (20 µM) the listed fold change of Cadaverine concentration is 1.03
